Data provenance: patent US10206394B2

tested on: Lolium perenne (LOLPE); test: Glasshouse assay for herbicidal activity (pre- and post-emergence), percentage phytotoxicity; format: in vivo; conditions: Lolium perenne, pre-emergence, 480 h, PRE-emergence, rate 250 g/ha, visual score 20 DAA (100%=total damage, 0%=no damage); read-out: Pre-emergence herbicidal activity (percentage phytotoxicity) LOLPE PRE
parameter: pest or weed control at 250 g/ha (%)
Express the result in % but write the number alone.

QUERY: For the compound CC#Cc1cc(C)c(C2C(=O)CC(CC(=O)NCc3ccccc3)C2=O)c(C)c1 (stereo not shown) [Compound B185] , what pest or weed control at 250 g/ha is on record?
RESULT: 70

QUERY: For the compound COCCN(CCOC)C(=O)CC1CC(=O)C(c2c(C)cc(-c3ncc(F)cn3)cc2C)C1=O (stereo not shown) [Compound B281] , what pest or weed control at 250 g/ha is on record?
RESULT: 80

QUERY: For the compound Cc1cc(-c2ncc(F)cc2F)cc(C)c1C1C(=O)CC(CC(=O)NCc2ccc(C#N)cc2)C1=O (stereo not shown) [Compound B199] , what pest or weed control at 250 g/ha is on record?
RESULT: 70

QUERY: For the compound CC#Cc1cc(C)c(C2C(=O)CC(CC(N)=O)C2=O)c(C)c1 (stereo not shown) [Compound B168] , what pest or weed control at 250 g/ha is on record?
RESULT: 100

QUERY: For the compound COCCN(CCOC)C(=O)CC1CC(=O)C(c2c(C)cc(-c3ncc(F)cc3F)cc2C)C1=O (stereo not shown) [Compound B266] , what pest or weed control at 250 g/ha is on record?
RESULT: 90

QUERY: For the compound C=C(C)CNC(=O)CC1CC(=O)C(c2c(C)cc(-c3ncc(Br)cn3)cc2C)C1=O (stereo not shown) [Compound B283] , what pest or weed control at 250 g/ha is on record?
RESULT: 100

QUERY: For the compound C=CC(C)NC(=O)CC1CC(=O)C(c2c(C)cc(-n3cc(Cl)cn3)cc2C)C1=O (stereo not shown) [Compound B316] , what pest or weed control at 250 g/ha is on record?
RESULT: 80

QUERY: For the compound C=C(C)CNC(=O)CC1CC(=O)C(c2c(C)cc(-c3ncc(C#N)cn3)cc2C)C1=O (stereo not shown) [Compound B287] , what pest or weed control at 250 g/ha is on record?
RESULT: 90

QUERY: For the compound Cc1cc(-c2ncc(F)cn2)cc(C)c1C1C(=O)CC(CC(=O)NC2CC2F)C1=O (stereo not shown) [Compound B293] , what pest or weed control at 250 g/ha is on record?
RESULT: 90

QUERY: For the compound Cc1cc(-c2ncc(F)cc2F)cc(C)c1C1C(=O)CC(CC(=O)N(C)C)C1=O (stereo not shown) [Compound B265] , what pest or weed control at 250 g/ha is on record?
RESULT: 100

QUERY: For the compound COCC(C)(C)NC(=O)CC1CC(=O)C(c2c(C)cc(C)cc2C)C1=O (stereo not shown) [Compound B180] , what pest or weed control at 250 g/ha is on record?
RESULT: 90

QUERY: For the compound COc1ccc(CNC(=O)CC2CC(=O)C(c3c(C)cc(-c4ccc(C#N)cn4)cc3C)C2=O)cc1 (stereo not shown) [Compound B324] , what pest or weed control at 250 g/ha is on record?
RESULT: 60

QUERY: For the compound CCNC(=O)CC1CC(=O)C(c2c(C)cc(-c3ncc(C#N)cn3)cc2C)C1=O (stereo not shown) [Compound B286] , what pest or weed control at 250 g/ha is on record?
RESULT: 90

QUERY: For the compound Cc1cc(-c2ncc(F)cc2F)cc(C)c1C1C(=O)CC(CC(=O)N(C)C(C)(C)C)C1=O (stereo not shown) [Compound B267] , what pest or weed control at 250 g/ha is on record?
RESULT: 100

QUERY: For the compound COCC(C)(C)NC(=O)CC1CC(=O)C(c2c(C)cc(-c3ncc(F)cc3F)cc2C)C1=O (stereo not shown) [Compound B329] , what pest or weed control at 250 g/ha is on record?
RESULT: 100

QUERY: For the compound CCc1cc(C)cc(C)c1C1C(=O)CC(CC(=O)N2CCOCC2)C1=O (stereo not shown) [Compound B169] , what pest or weed control at 250 g/ha is on record?
RESULT: 100
